Biological target: T1, MUT-#9 (Q476A) (Caenorhabditis elegans, UniProt Q09487 172-535, Q476A)
T1 sequence: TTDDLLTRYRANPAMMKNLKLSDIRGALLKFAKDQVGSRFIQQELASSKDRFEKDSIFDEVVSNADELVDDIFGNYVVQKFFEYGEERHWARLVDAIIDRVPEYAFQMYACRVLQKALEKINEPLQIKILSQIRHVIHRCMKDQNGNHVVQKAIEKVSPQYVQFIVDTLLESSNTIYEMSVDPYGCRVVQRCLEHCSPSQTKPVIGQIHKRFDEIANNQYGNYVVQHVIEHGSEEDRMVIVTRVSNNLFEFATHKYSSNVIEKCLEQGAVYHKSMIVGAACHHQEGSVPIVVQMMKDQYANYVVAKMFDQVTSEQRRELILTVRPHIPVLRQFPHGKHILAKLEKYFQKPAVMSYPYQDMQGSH
Assay: fluorescence polarization
RESULT_TYPE: Kd (nM)
Enter your answer as a number in nM; do not include the unit.

Quick one: Kd of UGUAAAUA (ssRNA) [PBE-5A FAM] ?
63.5
